test system: Escherichia coli TOP10; test: shrunken log2 fold change of peptide-encoding DNA abundance (4.5 h post-induction vs induction); higher = less antimicrobial activity (less host growth inhibition); conditions: time post-induction: 4.5 h; library: site-saturation at positions 5, 18, 19, 20
Listed here: items and their measured shrunken log2 fold change.

# Sequence Text, shrunken log2 fold change
data = [
    ("RRIRCRPPRLPRPRPRPWKHPRP", -0.264),
    ("RRIRRRPPRLPRPRPRPMTNPRP", -0.00301),
    ("RRIRVRPPRLPRPRPRPGPTPRP", 0.448),
    ("RRIRNRPPRLPRPRPRPTSDPRP", -0.148),
    ("RRIRMRPPRLPRPRPRPLELPRP", 0.337),
    ("RRIRWRPPRLPRPRPRPAGFPRP", 0.272),
    ("RRIRCRPPRLPRPRPRPPTRPRP", 0.645),
    ("RRIRQRPPRLPRPRPRPENVPRP", -0.0767),
    ("RRIRDRPPRLPRPRPRPKADPRP", -0.0266),
    ("RRIRARPPRLPRPRPRPKISPRP", 0.173),
    ("RRIRHRPPRLPRPRPRPRHYPRP", -0.285),
    ("RRIRWRPPRLPRPRPRPNVGPRP", -0.129),
    ("RRIRERPPRLPRPRPRPRSHPRP", -0.349),
    ("RRIRMRPPRLPRPRPRPVCRPRP", 1.48),
    ("RRIRMRPPRLPRPRPRPKFMPRP", 0.0431),
    ("RRIRHRPPRLPRPRPRPQKDPRP", 0.0122),
    ("RRIRRRPPRLPRPRPRPWYEPRP", -0.16),
    ("RRIRQRPPRLPRPRPRPQPAPRP", 0.218),
    ("RRIRCRPPRLPRPRPRPHCCPRP", 0.0538),
    ("RRIRHRPPRLPRPRPRPPAWPRP", 0.0414),
    ("RRIRDRPPRLPRPRPRPGGTPRP", 0.454),
    ("RRIRQRPPRLPRPRPRPFGPPRP", 0.0675),
    ("RRIRCRPPRLPRPRPRPNRLPRP", -0.00311),
    ("RRIRVRPPRLPRPRPRPYGRPRP", -0.0856),
    ("RRIRYRPPRLPRPRPRPYCPPRP", -0.848),
    ("RRIRTRPPRLPRPRPRPAETPRP", 0.139),
    ("RRIRRRPPRLPRPRPRPAAQPRP", 0.462),
    ("RRIRNRPPRLPRPRPRPLCFPRP", -0.461),
    ("RRIRIRPPRLPRPRPRPYSSPRP", -0.239),
    ("RRIRMRPPRLPRPRPRPDNRPRP", 0.00102),
    ("RRIRLRPPRLPRPRPRPNKFPRP", -0.206),
    ("RRIRARPPRLPRPRPRPWAIPRP", 0.253),
]

###

test system: Escherichia coli TOP10; experiment: shrunken log2 fold change of peptide-encoding DNA abundance (4.5 h post-induction vs induction); higher = less antimicrobial activity (less host growth inhibition); conditions: time post-induction: 4.5 h; library: site-saturation at positions 5, 18, 19, 20;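 also: peptides expressed intracellularly from a pBAD plasmid library in pooled LB shake-flask culture, induced with 0.3% L-arabinose, DNA abundance read by NGS, three biological replicates, DESeq2 with apeglm shrinkage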
Listed here: items and their measured shrunken log2 fold change.
Observation Type: shrunken log2 fold change

# Sequence Text, Tested Target, Number
data = [
    ("RRIRIRPPRLPRPRPRPGDKPRP", "Escherichia coli TOP10", -0.218),
    ("RRIRPRPPRLPRPRPRPNYDPRP", "Escherichia coli TOP10", -0.388),
    ("RRIRMRPPRLPRPRPRPRGLPRP", "Escherichia coli TOP10", 0.727),
    ("RRIRERPPRLPRPRPRPVQAPRP", "Escherichia coli TOP10", 0.014),
    ("RRIRVRPPRLPRPRPRPCAKPRP", "Escherichia coli TOP10", 0.128),
    ("RRIRTRPPRLPRPRPRPRWDPRP", "Escherichia coli TOP10", 0.0818),
    ("RRIRCRPPRLPRPRPRPDTDPRP", "Escherichia coli TOP10", -0.0352),
    ("RRIRDRPPRLPRPRPRPMSCPRP", "Escherichia coli TOP10", -0.00207),
    ("RRIRFRPPRLPRPRPRPIKKPRP", "Escherichia coli TOP10", 0.0144),
    ("RRIRERPPRLPRPRPRPSGAPRP", "Escherichia coli TOP10", -0.12),
    ("RRIRPRPPRLPRPRPRPCTPPRP", "Escherichia coli TOP10", -0.167),
    ("RRIRHRPPRLPRPRPRPWRTPRP", "Escherichia coli TOP10", -0.229),
    ("RRIRIRPPRLPRPRPRPYNKPRP", "Escherichia coli TOP10", -0.783),
    ("RRIRNRPPRLPRPRPRPQSWPRP", "Escherichia coli TOP10", -0.0543),
    ("RRIRDRPPRLPRPRPRPLGRPRP", "Escherichia coli TOP10", 0.0897),
    ("RRIRQRPPRLPRPRPRPEGTPRP", "Escherichia coli TOP10", 0.231),
    ("RRIRLRPPRLPRPRPRPCGKPRP", "Escherichia coli TOP10", -0.196),
    ("RRIRNRPPRLPRPRPRPCSMPRP", "Escherichia coli TOP10", -0.132),
    ("RRIRFRPPRLPRPRPRPTVDPRP", "Escherichia coli TOP10", -0.175),
    ("RRIRVRPPRLPRPRPRPYQMPRP", "Escherichia coli TOP10", -0.34),
    ("RRIRERPPRLPRPRPRPMLIPRP", "Escherichia coli TOP10", -0.266),
    ("RRIRERPPRLPRPRPRPSTTPRP", "Escherichia coli TOP10", -0.285),
    ("RRIRNRPPRLPRPRPRPKLAPRP", "Escherichia coli TOP10", 0.0921),
    ("RRIRQRPPRLPRPRPRPTAYPRP", "Escherichia coli TOP10", 0.14),
    ("RRIRWRPPRLPRPRPRPWMMPRP", "Escherichia coli TOP10", 0.119),
    ("RRIRHRPPRLPRPRPRPLNMPRP", "Escherichia coli TOP10", -1.26),
    ("RRIRQRPPRLPRPRPRPPFRPRP", "Escherichia coli TOP10", 0.14),
    ("RRIRQRPPRLPRPRPRPTNVPRP", "Escherichia coli TOP10", -0.302),
    ("RRIRNRPPRLPRPRPRPDGMPRP", "Escherichia coli TOP10", 0.0319),
    ("RRIRERPPRLPRPRPRPPCEPRP", "Escherichia coli TOP10", -0.075),
    ("RRIRRRPPRLPRPRPRPLCHPRP", "Escherichia coli TOP10", 0.182),
    ("RRIRDRPPRLPRPRPRPMPIPRP", "Escherichia coli TOP10", 0.000679),
]
